Experiment: NCI Yeast Anticancer Drug Screen. Data for the rad50 strain (AID 155);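 also: 0% = growth of vehicle-only cultures of the same strain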
Conditions: S. cerevisiae rad50 strain growth inhibition; at 50.0 µM; stronger effect = higher value
This is part of a sample that, as a whole, favours compounds with a hit. Of some 79,000 tested, about 15% had one in any assay.
READOUT_LABEL: growth inhibition (%)
State the answer as a number, implicitly in %.

For orientation, consider the following solved cases.
| MOLECULE | READOUT_LABEL | UNIT_TEXT | VALUE_REPORTED |
| --- | --- | --- | --- |
| O=c1oc2ccccc2cc1CCBr | growth inhibition | % | 16.4 |
| CN(C)S(=O)(=O)C=C(c1ccccc1)c1ccccc1 | growth inhibition | % | 1.25 |

Next, consider the following molecule.
Per the records, this molecule ( O=C(O)c1cc(=O)c2cc(Cl)ccc2[nH]1 ) has growth inhibition equal to -15.5

###

Assay: NCI Yeast Anticancer Drug Screen. Data for the sgs1 mgt1 strain (AID 161);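 also: 0% = growth of cultures given vehicle only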
Conditions: S. cerevisiae sgs1 mgt1 strain, at 50.0 µM, stronger effect = higher value
The panel holds about 79,000 compounds, 15% with a hit somewhere; the sample as a whole holds those more often.
READOUT_LABEL: growth inhibition (%)
State the answer as a number, implicitly in %.

| MOLECULE | growth inhibition, % |
| --- | --- |
| NS(=O)(=O)c1ccc(NC(=O)Nc2cccc(C(F)(F)F)c2)cc1 | 12.8 |
| N#Cc1c(-c2ccco2)cc(-c2ccccc2)[nH]c1=O | 18.1 |
| Oc1cc2c(cc1C(c1ccc(F)cc1)N1CCCC1)OCO2 (centres undefined) | 39.9 |
| O=Cc1cc2ccccc2c2ccccc12 | 5.45 |
| Cc1cc(Cc2ccc(N)c(C)c2)ccc1N | -12.8 |
| CCCN(CCC)S(=O)(=O)c1ccc(NC(=O)OC(c2ccccc2)(c2ccccc2)c2ccccc2)cc1 | 5.4 |
| CCCCCNC(=O)c1csc(-c2csc(CCNC(C)=O)n2)n1 | 4.7 |
| COc1ccc2cc3n(cc-2c1=O)CCc1cc2c(cc1-3)OCO2 | 5.65 |

Per the records, this molecule ( O=[N+]([O-])c1ccc(N=NNc2ccc(N=Nc3ccccc3)cc2)cc1 ) has growth inhibition equal to -1

Per the records, this molecule ( Cc1c(Cl)cc(C(C)(C)C)c(O)c1Cc1c(C)c(Cl)cc(C(C)(C)C)c1O ) has growth inhibition equal to -46.6

Per the records, this molecule ( CCOC(=O)N/C=C/C(C)=O ) has growth inhibition equal to -1.5

###

The following compounds are listed with their measured growth inhibition values.
Experiment: NCI Yeast Anticancer Drug Screen. Data for the bub3 strain (AID 167)
Conditions: S. cerevisiae bub3 mutant strain, at 50.0 µM, stronger effect = higher value
About 79,000 compounds went through this panel and 15% of them were active in at least one assay; those are over-represented in the sample as a whole.
State the answer as a number, implicitly in %.

| COMPOUND | growth inhibition (%) |
| --- | --- |
| CCC(C)C(C)(CO)CO (stereo unspecified) | -14.3 |
| Cc1c(CN2CCOCC2)c(CN2CCOCC2)c(C)n1-c1ccc(Cl)cn1 | -15.7 |
| O=C(O)CCNCCCCNCCC(=O)O | -22.6 |
| CC(C)CC(O)(CC(C)C)C(CCC(=O)Nc1ccccc1)C(=O)Nc1ccccc1 (stereo unspecified) | -8.5 |
| COC1(C)O[C@@]2(C)c3ccccc3C(=O)[C@@]2(c2ccccc2)O1 (stereo partly specified) | 5.4 |
| CN(C)c1ccc(/C=C2\CCOC2=O)cc1 | 2.95 |
| Cc1sc2nc3n(c(=O)c2c1C)N=CN(c1ccc(F)cc1)C3 | -7.5 |
| CCOC(=O)NNC(=O)C1CSC(c2ccccc2)N1C(C)=O (stereo unspecified) | 1.85 |
| O=C1NN2CCN=C2c2ccccc21 | -6.5 |
| CC1=CC[P+](Cc2ccccc2)(c2ccccc2)C1 (stereo unspecified) | 8.2 |

Per the records, this compound ( CC(C)=CCC/C(C)=C\CC/C(C)=C/CO ) has growth inhibition equal to -46.7

Per the records, this compound ( Cc1cc2c(C)nn(Cc3ccc(Cl)cc3)c2c(C#N)c1C ) has growth inhibition equal to 22.1

Per the records, this compound ( C=CCC(OC(C)=O)c1cccc(OC)c1OC (stereo unspecified) ) has growth inhibition equal to -3.25

Per the records, this compound ( COc1ccc(CC(N)C(=O)NC2C(CO)OC(n3cnc4c(N)ncnc43)C2O)cc1 (stereo unspecified) ) has growth inhibition equal to -0.25

Per the records, this compound ( O=C(O)CSc1n[nH]c(-c2ccc(O)cc2)n1 ) has growth inhibition equal to 4.95

Per the records, this compound ( CCCn1c(C)nc2c(N)cc(C)cc21 ) has growth inhibition equal to -1.5

Per the records, this compound ( Cc1ccc(Oc2cc(C)ccc2P(=O)(O)O)cc1 ) has growth inhibition equal to -23.7

Per the records, this compound ( Cc1ccc(S(=O)(=O)/N=[N+](\[O-])c2ccc(N(C)C)cc2)cc1 ) has growth inhibition equal to -7.8

Per the records, this compound ( COC(Cc1cc(C(O)(c2ccc(C(C)(C)C)cc2)c2cc(CC(OC)(c3cc(C(OC)(c4ccc(C(C)(C)C)cc4)c4ccc(C(C)(C)C)cc4)c(C)cc3C)c3cc(C(OC)(c4ccc(C(C)(C)C)cc4)c4ccc(C(C)(C)C)cc4)c(C)cc3C)c(C)cc2C)c(C)cc1C)(c1cc(C(OC)(c2ccc(C(C)(C)C)cc2)c2ccc(C(C)(C)C)cc2)c(C)cc1C)c1cc(C(OC)(c2ccc(C(C)(C)C)cc2)c2ccc(C(C)(C)C)cc2)c(C)cc1C ) has growth inhibition equal to 5.55

Per the records, this compound ( O=S(O)CCCSSSCCCS(=O)O ) has growth inhibition equal to 20

Per the records, this compound ( Cc1ccc2ccccc2c1CSc1nc(N)nc2c1ncn2CC(C)C ) has growth inhibition equal to 12.9

###

Test: NCI Yeast Anticancer Drug Screen. Data for the mlh1 rad18 strain (AID 175)
Details: S. cerevisiae mlh1 rad18 strain growth inhibition; at 50.0 µM; stronger effect = higher value
The panel holds about 79,000 compounds, 15% with a hit somewhere; the sample as a whole holds those more often.
READOUT_LABEL: growth inhibition (%)
State the answer as a number, implicitly in %.

For orientation, consider the following solved cases.
| MOLECULE | VALUE_REPORTED |
| --- | --- |
| C=CCO[Si](OCC=C)(OCC=C)OCC=C | 3.9 |
| O=c1c2ccccc2sc2nc(CCl)nn12 | 47.2 |

Per the records, this molecule ( Cc1cc(NN)c2cc3c(cc2n1)OCO3 ) has growth inhibition equal to 24.1

Per the records, this molecule ( O=C(NCCCN(CCCCN(CCCNC(=O)C(F)(F)F)Cc1ccc2ccccc2c1)Cc1ccc2ccccc2c1)C(F)(F)F ) has growth inhibition equal to 92.5

Per the records, this molecule ( CCCOC(=O)c1ccccc1C=O ) has growth inhibition equal to 23.4

###

The following compounds are listed with their measured growth inhibition values.
Assay: NCI Yeast Anticancer Drug Screen. Data for the bub3 strain (AID 167)
Conditions: S. cerevisiae bub3 mutant strain, at 50.0 µM, stronger effect = higher value
Experimental: Growth inhibition of yeast strains with defined genetic alterations is measured as a screen for potential anti-cancer activity. Selected strains with alterations in DNA damage repair or cell cycle control were exposed to compounds and growth inhibition was measured relative to vehicle treated controls. The strain used in this assay is bub3
Compounds without any hit were thinned out: in the full panel of roughly 79,000, 15% have a hit.
State the answer as a number, implicitly in %.

| COMPOUND | growth inhibition / % |
| --- | --- |
| Cc1cc2nc(CCC(=O)O)c(=O)[nH]c2cc1C | -24 |
| CCOc1ccc(/C=C2\N=C(c3ccc([N+](=O)[O-])cc3)OC2=O)cc1 | 15.6 |

Per the records, this compound ( Cc1cc2c(cc1C)NC(C)CC(=O)N2 (stereo not drawn) ) has growth inhibition equal to -0.2

Per the records, this compound ( COCC(C)OC(=O)c1ccccc1 (stereo not drawn) ) has growth inhibition equal to -14.9

Per the records, this compound ( Cc1ccc(SS(=O)(=O)c2ccc([N+](=O)[O-])cc2)cc1 ) has growth inhibition equal to -5.45

Per the records, this compound ( CCCCCC(=O)OCCOCCCC ) has growth inhibition equal to 6.85

Per the records, this compound ( C/C(CC(=O)Nc1cccc(Cl)c1C)=N\NC(=O)c1ccncc1 ) has growth inhibition equal to -0.5

Per the records, this compound ( Fc1ccc(/C=C/c2ccc(/C=C/c3ccc(F)cc3)nn2)cc1 ) has growth inhibition equal to 5.15

Per the records, this compound ( CCOC(=O)C(=O)Cc1ccccn1 ) has growth inhibition equal to 8.85

Per the records, this compound ( O=C(O)c1ccc(-n2cnc3c(=O)[nH]cnc32)cc1 ) has growth inhibition equal to -4.9

Per the records, this compound ( COc1ccc(CCC(C)(O)c2ccccc2)cc1 (stereo not drawn) ) has growth inhibition equal to 41.9

Per the records, this compound ( CCOC(=O)C(Cc1ccc([N+](=O)[O-])cc1)NC(=O)CC1c2ccccc2-c2ccccc21 (stereo not drawn) ) has growth inhibition equal to -9.9

Per the records, this compound ( CCNOCc1ccccc1 ) has growth inhibition equal to -0.45
